Exercise: for every item that follows, state its recorded relative viability.
Test system: NCI-H3122
Test: relative viability (nuclei count vs DMSO), 5 days (fraction); higher = more cells survive
Conditions: first compound 500 µM
Answers are plain numbers.

Exercise: Enter reported relative viability observed with NCI-H3122 for O=C(O)CCCCC(CCSCc1ccccc1)SCc1ccccc1 (centres undefined) [CPI-613] + NC(=O)Nc1cc(-c2cccc(F)c2)sc1C(=O)N[C@H]1CCCNC1 [AZD7762] (partner 0.2 µM)
Key: 0.842

Exercise: Enter reported relative viability observed with NCI-H3122 for O=C(O)CCCCC(CCSCc1ccccc1)SCc1ccccc1 (centres undefined) [CPI-613] + COc1cccc2cc(-c3nc([C@H]4CC[C@H](C(=O)O)CC4)n4ncnc(N)c34)[nH]c12 [OSI-027] (partner 0.5 µM)
Key: 0.045

Exercise: Enter reported relative viability observed with NCI-H3122 for O=C(O)CCCCC(CCSCc1ccccc1)SCc1ccccc1 (centres undefined) [CPI-613] + CC1(C)CCC(c2ccc(Cl)cc2)=C(CN2CCN(c3ccc(C(=O)NS(=O)(=O)c4ccc(N[C@H](CCN5CCOCC5)CSc5ccccc5)c(S(=O)(=O)C(F)(F)F)c4)cc3)CC2)C1 [Navitoclax] (partner 0.5 µM)
Key: 0.0262

Next compound, please.
Exercise: Enter reported relative viability observed with NCI-H3122 for O=C(O)CCCCC(CCSCc1ccccc1)SCc1ccccc1 (centres undefined) [CPI-613] + Nc1ncn([C@H]2C[C@H](O)[C@@H](CO)O2)c(=O)n1 [Decitabine] (partner 2 µM)
Key: 0.185
